MEASURED TARGET: T1, rHuman Notch-1/Fc Chimera, CF (R&D Systems Cat#3647-TK) (human, UniProt P46531 19-526)
T1 construct: Bought recombinant Fc chimera; Fc part of the bought chimera not given
ASSAY COMMENT: ECL multispot (MSD), antigen spotted, Fab in solution;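 also: purified Fab incubated 1 h at 20 °C on antigen-spotted wells, bound Fab detected via TAG detection antibody, ECL compared with each well's blank, ratio of 4 or above scored as hit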

BINDER: Fab VH1-46_IGHD6-6*01_IGHJ1*01 S102A/S103P/S104F/H111F (APFF) & L6_IGKJ1*01 S28R (Fab, V domains shown, Fab; VH cloned into Plasmid A (CH1, His6 and Flag tags) and VL into Plasmid C (kappa CL); also called APFF / S28R) VH: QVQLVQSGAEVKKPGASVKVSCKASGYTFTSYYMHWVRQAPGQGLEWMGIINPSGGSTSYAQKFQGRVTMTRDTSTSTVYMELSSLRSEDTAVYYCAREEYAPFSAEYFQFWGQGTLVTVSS VL: EIVLTQSPATLSLSPGERATLSCRASQRVSSYLAWYQQKPGQAPRLLIYDASNRATGIPARFSGSGSGTDFTLTISSLEPEDFAVYYCQQRSNWPPWTFGQGTKVEIKR
ECL signal: 425
--
BINDER: Fab VH1-46_IGHD6-6*01_IGHJ1*01 S102A/S103P/S104F/H111F (APFF) & L6_IGKJ1*01 S28N (Fab, V domains shown, Fab; VH cloned into Plasmid A (CH1, His6 and Flag tags) and VL into Plasmid C (kappa CL); also called APFF / S28N) VH: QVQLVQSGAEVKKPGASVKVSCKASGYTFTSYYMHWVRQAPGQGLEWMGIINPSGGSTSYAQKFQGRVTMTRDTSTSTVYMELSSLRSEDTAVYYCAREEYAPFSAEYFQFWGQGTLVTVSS VL: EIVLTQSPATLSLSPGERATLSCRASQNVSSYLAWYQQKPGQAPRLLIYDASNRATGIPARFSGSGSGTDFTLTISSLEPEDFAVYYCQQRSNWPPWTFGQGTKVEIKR
ECL signal: 243
--
BINDER: Fab VH1-46_IGHD6-6*01_IGHJ1*01 S102A/S103P/S104F/H111F (APFF) & L6_IGKJ1*01 S28M (Fab, V domains shown, Fab; VH cloned into Plasmid A (CH1, His6 and Flag tags) and VL into Plasmid C (kappa CL); also called APFF / S28M) VH: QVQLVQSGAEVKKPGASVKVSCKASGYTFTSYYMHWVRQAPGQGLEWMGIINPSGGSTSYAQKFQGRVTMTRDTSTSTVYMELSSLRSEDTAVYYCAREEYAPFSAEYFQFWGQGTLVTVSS VL: EIVLTQSPATLSLSPGERATLSCRASQMVSSYLAWYQQKPGQAPRLLIYDASNRATGIPARFSGSGSGTDFTLTISSLEPEDFAVYYCQQRSNWPPWTFGQGTKVEIKR
ECL signal: 382
--
BINDER: Fab VH1-46_IGHD6-6*01_IGHJ1*01 S102A/S103P/S104F/H111F (APFF) & L6_IGKJ1*01 S28W (Fab, V domains shown, Fab; VH cloned into Plasmid A (CH1, His6 and Flag tags) and VL into Plasmid C (kappa CL); also called APFF / S28W) VH: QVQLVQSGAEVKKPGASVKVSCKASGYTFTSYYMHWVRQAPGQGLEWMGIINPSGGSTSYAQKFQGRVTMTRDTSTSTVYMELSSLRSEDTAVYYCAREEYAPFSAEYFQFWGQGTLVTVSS VL: EIVLTQSPATLSLSPGERATLSCRASQWVSSYLAWYQQKPGQAPRLLIYDASNRATGIPARFSGSGSGTDFTLTISSLEPEDFAVYYCQQRSNWPPWTFGQGTKVEIKR
ECL signal: 349
--
BINDER: Fab VH1-46_IGHD6-6*01_IGHJ1*01 S102A/S103P/S104F/H111F (APFF) & L6_IGKJ1*01 S30C (Fab, V domains shown, Fab; VH cloned into Plasmid A (CH1, His6 and Flag tags) and VL into Plasmid C (kappa CL); also called APFF / S30C) VH: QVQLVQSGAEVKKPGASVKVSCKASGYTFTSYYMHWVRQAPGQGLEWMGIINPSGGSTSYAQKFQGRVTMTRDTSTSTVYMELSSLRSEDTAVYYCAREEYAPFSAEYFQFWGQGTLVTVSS VL: EIVLTQSPATLSLSPGERATLSCRASQSVCSYLAWYQQKPGQAPRLLIYDASNRATGIPARFSGSGSGTDFTLTISSLEPEDFAVYYCQQRSNWPPWTFGQGTKVEIKR
ECL signal: 1470
--
BINDER: Fab VH1-46_IGHD6-6*01_IGHJ1*01 S102A/S103P/S104F/H111F (APFF) & L6_IGKJ1*01 S30D (Fab, V domains shown, Fab; VH cloned into Plasmid A (CH1, His6 and Flag tags) and VL into Plasmid C (kappa CL); also called APFF / S30D) VH: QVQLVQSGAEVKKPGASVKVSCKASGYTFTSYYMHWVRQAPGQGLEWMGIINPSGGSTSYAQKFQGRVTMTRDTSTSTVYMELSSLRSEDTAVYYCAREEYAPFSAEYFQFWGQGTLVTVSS VL: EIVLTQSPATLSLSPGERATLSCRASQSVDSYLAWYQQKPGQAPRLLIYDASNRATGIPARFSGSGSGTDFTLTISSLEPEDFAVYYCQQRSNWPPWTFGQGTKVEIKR
ECL signal: 415
--
BINDER: Fab VH1-46_IGHD6-6*01_IGHJ1*01 S102A/S103P/S104F/H111F (APFF) & L6_IGKJ1*01 S28E (Fab, V domains shown, Fab; VH cloned into Plasmid A (CH1, His6 and Flag tags) and VL into Plasmid C (kappa CL); also called APFF / S28E) VH: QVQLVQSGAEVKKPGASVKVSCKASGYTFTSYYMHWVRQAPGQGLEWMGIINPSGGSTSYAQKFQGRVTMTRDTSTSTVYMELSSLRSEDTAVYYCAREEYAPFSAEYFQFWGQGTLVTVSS VL: EIVLTQSPATLSLSPGERATLSCRASQEVSSYLAWYQQKPGQAPRLLIYDASNRATGIPARFSGSGSGTDFTLTISSLEPEDFAVYYCQQRSNWPPWTFGQGTKVEIKR
ECL signal: 433
